Measured values drawn from patent US20220177589A1 for this set.

Molecular target: chimeric BTLA of humanised-BTLA mice (human extracellular region, murine transmembrane and signaling … (human; mouse, UniProt Q7TSA3 184-306, limits assumed)
Sequence (Q7TSA3 other isoform, or with tags, fused parts or gaps mutant limits assumed): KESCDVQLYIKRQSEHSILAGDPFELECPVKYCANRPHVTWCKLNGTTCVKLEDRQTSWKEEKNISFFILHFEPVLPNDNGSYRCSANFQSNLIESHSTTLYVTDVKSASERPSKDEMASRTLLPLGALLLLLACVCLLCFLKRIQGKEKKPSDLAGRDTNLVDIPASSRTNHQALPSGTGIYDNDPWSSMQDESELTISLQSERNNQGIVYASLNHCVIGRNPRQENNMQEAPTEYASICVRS
Experiment: cell-based or functional assay
Measured AntiCD3/CD28 (CD69+ CD4 T cells) repeat 1, % inhibition by item
Provide the reading as a plain figure in %.

Below, 3 binders whose answers are already recorded.
binder: 12F11 (antibody, IgG1, V domains shown) VH: EVQLQQSGPELVKPGASVKISCKASGYTFTDYYMNWVKQSHGKSLEWIGDINPNNGGTSYNQKFKGKATLTVDKSSSTAYMELRSLTSEDSAVYYCARWRQLRSDYWGQGTTLTVSS VL: DIQMTQSPASQSASLGESVTITCLASQTIGTWLAWYQQKPGKSPQLLIYAATSLADGVPSRFSGSGSGTKFSFKISSLQAEDFVSYYCQQLYSTPLTFGAGTKLELK
unit-of-measure: %
value-reported: 30
--
binder: 831 (antibody, V domains shown) VH: DVQLQESGPDLVKPSQSLSVTCTVTGYSITSGYSWHWIRQFPGNKLEWMGYIHYSGSTNYNPSLKSRISITRDTSKNQFFLQLSSVTTEDTATYYCASGPHRYDGVWFAYWGQGTLVTVSS VL: EIVLTQSPTTMAASPGEKITITCSASSSISSNYLHWYQQKPGFSPKLLIYRTSNLASGVPARFSGSGSGTSYSLTIGTMEAEDVATYYCQQGTNIPLTFGAGTKLEIK
unit-of-measure: %
value-reported: 50
--
binder: 15C6 (antibody, IgG1, V domains shown) VH: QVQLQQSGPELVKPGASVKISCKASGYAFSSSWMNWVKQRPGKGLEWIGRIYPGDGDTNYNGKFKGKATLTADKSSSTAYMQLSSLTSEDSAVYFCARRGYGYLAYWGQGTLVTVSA VL: DIVMTQSHKFMSTSVGDRVSITCKASQDVSTAVAWYQQKPGQSPKLLIYSASYRYTGVPDRFTGSGSGTDFTFTISSVQAEDLAVYYCQQHYSTPYTFGGGTKLEIK
unit-of-measure: %
value-reported: 12

With those in mind, consider the next binder.
QUERY: Read the entry 26B1 (antibody, IgG1, V domains shown) VH: EVQLQQSGPVLVKPGASVKMSCKASGYTFTDYYLNWVKQSHGKSLEWIGLIDPYNGGSSCNQKFKGKATLTVDKSSSTAYMDLNSLTSEDSAVYYCARGNAMDYWGQGTSVTVSS VL: DIVMTQSHKFMSTSVGDRVSITCKASQDVSTAVAWYQEKPGQSPKLLIYWASTRHTGVPDRFTGSGSGTDYILNISSVQAEDLALYYCQQHYIIPYMFGGGTKLEIK and write its reported AntiCD3/CD28 (CD69+ CD4 T cells) repeat 1, % inhibition.
RESULT: 35
